# target entity: ΔF508-CFTR (Homo sapiens, UniProt P13569, DEL508-508)
# Construct: host or cells: CFBE41o-, doxycycline-inducible
# Sequence (P13569 with tags, fused parts or gaps DEL508-508): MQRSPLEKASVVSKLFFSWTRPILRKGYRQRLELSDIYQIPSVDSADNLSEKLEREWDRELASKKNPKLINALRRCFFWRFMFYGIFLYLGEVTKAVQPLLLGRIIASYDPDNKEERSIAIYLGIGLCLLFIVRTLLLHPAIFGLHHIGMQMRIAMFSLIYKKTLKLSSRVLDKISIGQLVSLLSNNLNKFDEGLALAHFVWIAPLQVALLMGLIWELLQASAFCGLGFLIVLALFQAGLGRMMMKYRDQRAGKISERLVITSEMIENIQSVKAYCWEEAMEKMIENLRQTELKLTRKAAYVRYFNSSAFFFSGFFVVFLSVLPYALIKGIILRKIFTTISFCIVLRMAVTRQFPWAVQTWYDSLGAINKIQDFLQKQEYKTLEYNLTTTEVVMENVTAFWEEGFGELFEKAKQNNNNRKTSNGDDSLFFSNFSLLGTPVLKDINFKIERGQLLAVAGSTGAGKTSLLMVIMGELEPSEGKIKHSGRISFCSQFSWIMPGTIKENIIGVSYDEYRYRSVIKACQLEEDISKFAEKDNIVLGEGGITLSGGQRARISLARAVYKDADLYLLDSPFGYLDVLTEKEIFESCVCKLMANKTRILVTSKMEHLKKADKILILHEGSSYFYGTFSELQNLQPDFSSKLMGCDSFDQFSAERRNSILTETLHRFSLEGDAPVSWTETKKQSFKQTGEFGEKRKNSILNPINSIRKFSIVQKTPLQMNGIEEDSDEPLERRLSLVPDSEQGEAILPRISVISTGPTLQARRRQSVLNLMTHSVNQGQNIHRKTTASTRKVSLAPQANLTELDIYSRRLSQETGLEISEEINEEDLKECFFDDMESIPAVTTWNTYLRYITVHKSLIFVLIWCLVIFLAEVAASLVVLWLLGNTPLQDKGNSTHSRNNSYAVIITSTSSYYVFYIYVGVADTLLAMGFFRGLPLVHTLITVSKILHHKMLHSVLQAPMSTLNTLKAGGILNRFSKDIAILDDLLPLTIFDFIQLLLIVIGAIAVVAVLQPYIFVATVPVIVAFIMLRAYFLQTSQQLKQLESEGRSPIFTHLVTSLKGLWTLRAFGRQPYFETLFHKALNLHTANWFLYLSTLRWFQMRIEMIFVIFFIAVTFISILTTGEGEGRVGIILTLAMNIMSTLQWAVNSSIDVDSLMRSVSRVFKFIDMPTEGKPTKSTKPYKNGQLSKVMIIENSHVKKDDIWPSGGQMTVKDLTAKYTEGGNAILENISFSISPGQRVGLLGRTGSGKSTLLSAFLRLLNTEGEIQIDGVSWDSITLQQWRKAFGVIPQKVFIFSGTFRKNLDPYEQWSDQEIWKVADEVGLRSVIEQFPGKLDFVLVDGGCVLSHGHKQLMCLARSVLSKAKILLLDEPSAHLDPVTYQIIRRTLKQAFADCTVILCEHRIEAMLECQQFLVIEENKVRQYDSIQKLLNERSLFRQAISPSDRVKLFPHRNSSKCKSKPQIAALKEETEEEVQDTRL
# assay: CFTR cell surface levels using HRP-tagged ΔF508-CFTR expressing CFBE cells, intrinsic corrector capacity
# Format: cell-based
# conditions used: HRP-tagged ΔF508-CFTR expressing CFBE cells; intrinsic corrector capacity (no co-corrector); 33° C., 20 hours; read-out: EC50
Measured pEC50 of individual entries
// returns pEC50 (minus log10 of molar concentration), number only

{"molecule": "O=C(O)c1cc(N2CCC(F)(F)CC2)c2c(C3CCC3)nn(-c3ccccc3)c2n1", "experimental result": 6.10}
{"molecule": "CC1(C)OC[C@@H](COc2cc(C(=O)O)nc3c2c(C2CCC2)nn3-c2ccccc2)O1", "experimental result": 6.26}
{"molecule": "CCCOCCN1CCN(c2cc(C(=O)O)nc3c2c(C2CCC2)nn3-c2ccccc2)CC1", "experimental result": 6.48}

Q: Please tell me: pEC50 of O=C(O)c1cc(OCCN2CCCC2)c2c(C3CCC3)nn(-c3ccccc3)c2n1 , system ΔF508-CFTR (Homo sapiens, UniProt P13569, DEL508-508)?
Ans: 5.50

Q: Same again, this time with CCN1CCN(c2cc(C(=O)O)nc3c2c(C(C)C)nn3-c2ccc(F)cc2)CC1
Ans: 5.78

Q: Same again, this time with CC(C)c1nn(-c2ccc(F)cc2)c2nc(C(=O)O)cc(N3CCN(CCC(=O)N4CCCN(C)CC4)CC3)c12
Ans: 5.30

Q: Same again, this time with N#CC1CCCN(C2CCN(c3cc(C(=O)O)nc4c3c(C3CCC3)nn4-c3ccc(F)cc3)CC2)C1 (stereo not drawn)
Ans: 6.56

Q: Same again, this time with Cc1cc(-n2nc(C3CCC3)c3c(N4CCC(N5CCOCC5)CC4)cc(C(=O)O)nc32)ccc1F
Ans: 6.75

Q: Same again, this time with CN1CCC([C@@H](F)COc2cc(C(=O)O)nc3c2c(C2CCC2)nn3-c2ccccc2)CC1
Ans: 5.79

Q: Same again, this time with COCC1CCN(c2cc(C(=O)O)nc3c2c(C(C)C)nn3-c2ccnc(N3CCOCC3)n2)CC1
Ans: 6.34

----------
Measured % Activation of individual entries
# target entity: ΔF508-CFTR (Homo sapiens, UniProt P13569, DEL508-508)
# Construct: host or cells: CFBE41o-, doxycycline-inducible
# assay: CFTR cell surface levels using HRP-tagged ΔF508-CFTR expressing CFBE cells, intrinsic corrector capacity
# Type: cell-based
# conditions used: HRP-tagged ΔF508-CFTR CFBE41o- cells, compounds alone (intrinsic corrector capacity), 20 hours at 33° C.; positive control 3 μM corrector
# From the text: Measuring CFTR Cell Surface Levels Using HRP-Tagged AF508-CFTR Expressing CFBE Cells The HRP-tagged AF508-CFTR cell assay measures the expression of CFTR-ΔF508 at the plasma membrane. […] When HRP-tagged AF508-CFTR is present at the plasma membrane, the HRP enzyme activity can be measured. The amount of CFTR-ΔF508 that can be rescued to the plasma membrane is correlated with the amount of functional enzyme that can be measured. […]
Enter your answer as a number in %; do not include the unit.

Below, 2 molecules whose answers are already recorded.
{"molecule": "Cc1nn(-c2ccccc2)c2nc(C(=O)O)cc(O[C@H]3C[C@@H](N(C)C)C3)c12", "reported property": "% Activation", "unit string": "%", "experimental result": 18.86}
{"molecule": "CO[C@H]1CCN(c2cc(C(=O)O)nc3c2c(C)nn3-c2ccccc2)C1", "reported property": "% Activation", "unit string": "%", "experimental result": 29.42}

// switching to the query molecule
Q: Bench note: what % Activation did Cc1nn(-c2ccc(F)c(F)c2)c2nc(C(=O)O)cc(-c3ccc(N4CCOCC4)cc3)c12 show?
Ans: 112.9

----------
# target entity: ΔF508-CFTR (Homo sapiens, UniProt P13569, DEL508-508)
# Construct: host or cells: CFBE41o-, doxycycline-inducible
# assay: CFTR cell surface levels using HRP-tagged ΔF508-CFTR expressing CFBE cells, intrinsic corrector capacity
# Assay type: cell-based
# conditions used: HRP-tagged ΔF508-CFTR CFBE41o- cells, compounds alone (intrinsic corrector capacity), 20 hours at 33° C.; positive control 3 μM corrector
Measured % Activation of individual entries
Enter your answer as a number in %; do not include the unit.

Below, 7 compounds whose answers are already recorded.
{"compound": "Cc1nn(-c2ccccc2)c2nc(C(=O)O)cc(N3CC4CC4C3)c12 (centres unmarked) [compound 304]", "target entity": "ΔF508-CFTR (Homo sapiens, UniProt P13569, DEL508-508)", "% Activation [%]": 98.425}
{"compound": "Cc1nn(-c2cccc(OC(F)(F)F)c2)c2nc(C(=O)O)cc(-c3ccc(N4CCOCC4)cc3)c12 [compound 35]", "target entity": "ΔF508-CFTR (Homo sapiens, UniProt P13569, DEL508-508)", "% Activation [%]": 110.15}
{"compound": "Cc1nn(-c2ccccc2)c2nc(C(=O)O)cc(N3CC4(CCCC4)C3)c12 [compound 307]", "target entity": "ΔF508-CFTR (Homo sapiens, UniProt P13569, DEL508-508)", "% Activation [%]": 77.423}
{"compound": "COc1cccc(-n2nc(C)c3c(-c4ccc(N5CCN(CC#N)CC5)cc4)cc(C(=O)O)nc32)c1 [compound 232]", "target entity": "ΔF508-CFTR (Homo sapiens, UniProt P13569, DEL508-508)", "% Activation [%]": 215.6}
{"compound": "Cc1nn(-c2ccccc2)c2nc(C(=O)O)cc(N3CC4(CCOC4)C3)c12 [compound 306]", "target entity": "ΔF508-CFTR (Homo sapiens, UniProt P13569, DEL508-508)", "% Activation [%]": 22.69}
{"compound": "Cc1nn(-c2ccccc2)c2nc(C(=O)O)cc(C3CCN(CC#N)CC3)c12 [compound 139]", "target entity": "ΔF508-CFTR (Homo sapiens, UniProt P13569, DEL508-508)", "% Activation [%]": "−0.041"}
{"compound": "CC(C)c1nn(-c2ccc(F)c(F)c2)c2nc(C(=O)O)cc(-c3ccc(N4CCC(C#N)CC4)nc3)c12 [compound 279]", "target entity": "ΔF508-CFTR (Homo sapiens, UniProt P13569, DEL508-508)", "% Activation [%]": 257.8}

Q: Please tell me: % Activation of Cc1cccc(-n2nc(C(C)C)c3c(N4CCC5C(CCN5C(=O)OC(C)(C)C)C4)cc(C(=O)O)nc32)c1 (centres unmarked) [compound 234] , system ΔF508-CFTR (Homo sapiens, UniProt P13569, DEL508-508)?
Ans: 292.97

----------
# target entity: ΔF508-CFTR (Homo sapiens, UniProt P13569, DEL508-508)
# Construct: host or cells: CFBE41o-, doxycycline-inducible
# assay: CFTR cell surface levels using HRP-tagged ΔF508-CFTR expressing CFBE cells, in the presence of a co-corrector
# Type: cell-based
# conditions used: HRP-tagged ΔF508-CFTR expressing CFBE cells, in the presence of 3 μM co-corrector
reported property: % Activation (%)
Enter your answer as a number in %; do not include the unit.

Below, 5 compounds whose answers are already recorded.
{"compound": "CN1CC[C@H](Oc2cc(C(=O)O)nc3c2c(C2CCC2)nn3-c2ccccc2)C1 [compound 651]", "% Activation [%]": 187.9}
{"compound": "CN1CCOC(C2CN(c3cc(C(=O)O)nc4c3c(C3CCC3)nn4-c3ccccc3)C2)C1 (stereo not shown) [compound 723]", "% Activation [%]": 344.8}
{"compound": "CC(C)c1nn(C2CCCCC2)c2nc(C(=O)O)cc(-c3ccc(N4CCC(C)(C#N)CC4)nc3)c12 [compound 203]", "% Activation [%]": 361.75}
{"compound": "Cc1nn(-c2ccccc2)c2nc(C(=O)O)cc(OC3CCN(C)CC3)c12 [compound 339]", "% Activation [%]": 126.85}
{"compound": "CC(C)N1CCC2CN(c3cc(C(=O)O)nc4c3c(C3CCC3)nn4-c3ccc(F)cc3)CCC21 (stereo not shown) [compound 900]", "% Activation [%]": 389.73}

Q: Bench note: what % Activation did CC(C)c1nn(-c2cccc(N(C)C)c2)c2nc(C(=O)O)cc(N3CCC(CO)CC3)c12 [compound 331] show?
Ans: 513.57

Q: Same again, this time with O=C(O)c1cc(N2C[C@@H](O)[C@H](O)C2)c2c(C3CCC3)nn(-c3ccccc3)c2n1 [compound 445]
Ans: 127.85

Q: Same again, this time with CC(C)c1nn([C@@H]2CCC[C@H](O)C2)c2nc(C(=O)O)cc(-c3ccc(N4CCOCC4)cc3)c12 (racemic) [compound 195]
Ans: 174.9

These entries and their values trace back to patent US9796711B2.
